Each recorded value in this set is attributed to paper PMC5540273.

- System: NEK5
- CONDITION CONTEXT: concentration: 1 μM, replicates: in singlicate; n = 1;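 also: KINOMEscan kinase panel screen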
Label Fulfilled when %Inh is strictly below 10%; at or above that, label Not fulfilled.

COC(=O)Nc1nc2cc(Oc3ccc(NC(=O)Nc4cccc(SC)c4)cc3)ccc2[nH]1.Cl: Not fulfilled
CC(C)(C)c1ccc(C(=O)Nc2cn3cc(-n4ccnc4)ccc3n2)cc1: Not fulfilled
Nc1ncc(-c2ccc3nccc(-c4ccncc4)c3c2)cc1S(=O)(=O)N1CCCCC1: Not fulfilled
CCn1cnc2c(NCc3ccccc3)ncnc21: Fulfilled
COC(=O)Nc1nc2ccc(Oc3ccc(NC(=O)Nc4cc(C(F)(F)F)ccc4F)cc3)cc2[nH]1.Cl: Not fulfilled
COc1ccc(NC(=O)c2ccoc2)cc1-c1ccc(C(=O)NCC2CC2)cc1: Fulfilled
Cc1ccc(C)c(NC(=O)Nc2ccc(C)c(-c3ccc(C(=O)Nc4ccncc4)cc3)c2)c1: Fulfilled
Cc1ccc(NC(=O)c2ccnc(N3CCCCC3)c2)cc1-c1ccc(C(=O)NCC2CC2)cc1: Fulfilled
CC(C)NCC(Cc1ccccc1)NC(=O)c1cc(Br)c(-c2ccnc3[nH]ccc23)s1.Cl.Cl (stereo not drawn): Not fulfilled
Cc1ccc(O)cc1Nc1ccnc2ccc(C(C)(C)C)cc12: Not fulfilled
Cl.Cl.NCC(NC(=O)c1cc(-c2cccnc2)c(-c2ccnc3[nH]ccc23)s1)c1ccccc1 (stereo not drawn): Not fulfilled
CCOc1nccc(-c2c(-c3ccc(F)cc3)ncn2C2CCNCC2)n1: Not fulfilled
Cc1ccc(NC(=O)c2cccc(N3CCCCC3)c2)cc1-c1ccc(C(=O)NCC2CC2)cc1: Not fulfilled
O=C(Nc1n[nH]c2nc(-c3ccccc3O)ccc12)C1CC1: Fulfilled
Fc1cc(Cl)ccc1Nc1ccnc2cc(-c3ccc(CN4CCSCC4)o3)ccc12: Fulfilled

###

- Test system: MAP3K1
- CONDITION CONTEXT: concentration: 1 μM, replicates: in singlicate; n = 1
Please respond with true when measured %Inh is strictly beneath 10%, and with false in all other cases.

Cc1ccc(O)cc1Nc1ccnc2ccc(C(C)(C)C)cc12: false
Cc1ccc(C)c(NC(=O)Nc2ccc(C)c(-c3ccc(C(=O)Nc4ccncc4)cc3)c2)c1: true
Cc1cc(-c2ccnc(Nc3cccc(C#N)c3)n2)cc(C)c1O: false
Cc1cc(-c2c(-c3ccc(F)cc3)ncn2CCCN2CCOCC2)nc(N)n1: false
CSc1ccc(NC2=C(c3ccc(Cl)cc3)C(=O)NC2=O)cc1: true

###

- Test system: NIM1
- Construct: gene MGC42105
- CONDITION CONTEXT: concentration: 1 μM, replicates: in singlicate; n = 1
Listed molecules paired with reported %Inh
MEASUREMENT LABEL: %Inh (%)

CC(C)c1nc(-c2ccc(F)c(NS(=O)(=O)c3c(F)cccc3F)c2)c(-c2ccnc(Nc3ccc(N4CCOCC4)nc3)n2)s1 [GSK1804250]: 0
Cc1ccc(O)cc1Nc1ccnc2cc(-c3ccc(CN4CCCCC4)o3)ccc12 [GW557777]: 0
Cc1ccc(NC(=O)c2ccnc(N3CCCCC3)c2)cc1-c1ccc(C(=O)NCC2CC2)cc1 [GW775610]: 8
Nc1cccc(-c2ccc3c(N)n[nH]c3c2)c1 [GSK2193613]: 0
CN(c1ccc(F)c(NC(=O)c2cccc(OC(C)(C)C#N)c2Cl)c1)c1ccc2nc(NC(=O)C3CC3)sc2n1: 8
Cc1ccc(NC(=O)c2ccc(Cl)c(Cl)c2)cc1-c1ccc(C(=O)Nc2ccncc2)cc1 [GSK1398460]: 0
CN(C)CCNS(=O)(=O)c1ccc(-c2ccnc3[nH]ccc23)cc1 [GSK977620]: 13
CCOc1nccc(-c2c(-c3ccc(F)cc3)ncn2C2CCNCC2)n1 [SB-249175]: 44
O=C(Nc1n[nH]c2cc(-c3cccs3)ccc12)C1CC1 [SB-731284]: 12
CC(C)(C)c1ccc(C(=O)Nc2cn3cc(-n4ccnc4)ccc3n2)cc1: 3
Cn1cc(-c2cnc(N)c3c(-c4ccc5c(c4)CCN5C(=O)Cc4ccccc4)csc23)cn1 [GSK2593074]: 0
CN(C)CCOc1ccc(-c2cc(-c3ccc(Cl)c(O)c3)c(-c3ccncc3)[nH]2)cc1.Cl.Cl [SB-684387]: 40
Cc1ccc(O)cc1Nc1ccnc2ccc(C(C)(C)C)cc12 [GW856805]: 52
Fc1cc(Cl)ccc1Nc1ccnc2cc(-c3ccc(CN4CCSCC4)o3)ccc12 [GW560106]: 23
COc1cccc(-c2nc(-c3ccccc3)[nH]c2-c2ccncc2)c1 [SB-610250]: 40
Cl.Cl.NC(CNC(=O)c1cc(Br)c(-c2ccnc3[nH]ccc23)s1)c1ccccc1 (stereo not drawn) [GSK1322949]: 65
CCNC(=O)/C=C/c1n[nH]c2cc(Sc3ccccc3C(=O)NC)ccc12: 2
COc1ccc(C)c(Nc2ccnc(Nc3ccc(-c4cnc[nH]4)cc3)n2)c1.Cl [GW784041]: 0
N#CC1(c2cccc(C(=O)Nc3cccc(Oc4ccc5nc(NC(=O)C6CC6)sc5n4)c3)c2)CC1: 0
O=C(Nc1n[nH]c2nc(-c3cccc(O)c3)ccc12)C1CC1 [SB-711805]: 0
CN(c1ccc(NC(=O)Nc2cccc(Cl)c2)cc1)c1ccnc(N)n1.Cl [GW830707]: 0

###

- Tested on: TBK1
- CONDITION CONTEXT: concentration: 1 μM, replicates: in singlicate; n = 1
%Inh by entry:
MEASUREMENT LABEL: %Inh (%)

O=C(Nc1n[nH]c2nc(-c3ccccc3)ccc12)C1CC1 [SB-708999]: 8
N#Cc1cnc2cc(-c3cnc(CNCCN4CCOCC4)s3)ccc2c1Nc1ccc(Oc2ccccc2)cc1 [GW664114]: 34
O=C(O)C(F)(F)F.O=c1[nH]ccc2nc(N[C@@H]3CCNC3)nc(Nc3cc(Cl)cc(Cl)c3)c12 [GSK2188764]: 54
O=C1NC(=O)C(c2ccccc2Cl)=C1Nc1cccc(Cl)c1 [SB-342409]: 7

###

- Test system: DLK
- Construct: gene MAP3K12
- CONDITION CONTEXT: concentration: 1 μM, replicates: in singlicate; n = 1
Assign 1 whenever %Inh does not fall below 8%; assign 0 whenever it does.

COc1ccc(C2=C(Nc3cccc(O)c3)C(=O)NC2=O)cc1: 1
O=C(Nc1n[nH]c2nc(-c3ccccc3)ccc12)C1CC1: 0
Cc1cc(-c2c(-c3ccc(F)cc3)ncn2CCCN2CCOCC2)nc(N)n1: 0
Nc1ncc(-c2ccc3nccc(-c4ccncc4)c3c2)cc1S(=O)(=O)N1CCCCC1: 1
COc1ccc(NC(=O)c2ccoc2)cc1-c1ccc(C(=O)NCC2CC2)cc1: 0
CN(C)CCNS(=O)(=O)c1ccc(-c2ccnc3[nH]ccc23)cc1: 1
Cc1cc(-c2ccnc(Nc3cccc(C#N)c3)n2)cc(C)c1O: 1
Cc1ccccc1CC(=O)N1CCc2cc(-c3cn(C)c4ncnc(N)c34)ccc21: 0
O=C(Nc1n[nH]c2nc(-c3cccc(O)c3)ccc12)C1CC1: 0
COc1cc(Nc2nccc(N3CCC(NC(=O)Nc4ccc5c(c4)OCO5)C3)n2)cc(OC)c1OC (stereo not shown): 1
N#CC1(c2cccc(C(=O)Nc3cccc(Oc4ccc5nc(NC(=O)C6CC6)sc5n4)c3)c2)CC1: 0
NCCC(NC(=O)c1cc(Br)c(-c2ccnc3[nH]ccc23)s1)c1ccccc1.O=C(O)C(F)(F)F.O=C(O)C(F)(F)F (stereo not shown): 1

###

- Tested on: IRAK3
- CONDITION CONTEXT: concentration: 1 μM, replicates: in singlicate; n = 1
MEASUREMENT LABEL: %Inh (%)

CCn1c(-c2nonc2N)nc2c(-c3ccccc3)ncc(OCCCN)c21.O=C(O)C(F)(F)F.O=C(O)C(F)(F)F: 0
CCNC(=O)/C=C/c1n[nH]c2cc(Sc3ccccc3C(=O)NC)ccc12: 9
COC(=O)Nc1nc2ccc(Oc3ccc(NC(=O)Nc4cc(C(F)(F)F)ccc4F)cc3)cc2[nH]1.Cl: 6
O=C1NC(=O)C(c2ccccc2Cl)=C1Nc1cccc(Cl)c1: 0

###

- System: EIF2AK1
- CONDITION CONTEXT: concentration: 1 μM, replicates: in singlicate; n = 1
MEASUREMENT LABEL: %Inh (%)

Cn1cc(-c2ccc3c(c2)CCN3C(=O)Cc2cc(F)cc(F)c2F)c2c(N)ncnc21: 80
COc1cccc2c(-c3ccncc3)c(-c3ccc(F)cc3)nn12: 0
CN1CCN(Cc2ccc(NC(=O)Nc3ccc(N(C)c4ccnc(Nc5ccc(CS(C)(=O)=O)cc5)n4)cc3)cc2)CC1.Cl: 0
CCn1cnc2c(NCc3ccccc3)ncnc21: 0
CN(c1ccc(NC(=O)Nc2cccc(Cl)c2)cc1)c1ccnc(N)n1.Cl: 0

###

- Test system: PIK3CG
- CONDITION CONTEXT: concentration: 1 μM, replicates: in singlicate; n = 1
This section presents compounds with their documented %Inh values.
MEASUREMENT LABEL: %Inh

Cl.O=C(Nc1ccc(Oc2ccc3[nH]c(NC(=O)c4ccco4)nc3c2)cc1)Nc1cc(C(F)(F)F)ccc1F: 99.9%
O=C(Nc1n[nH]c2nc(-c3cccc(O)c3)ccc12)C1CC1: 17%
Cc1ccc(Nc2ccnc(Nc3ccc(C)c(F)c3)n2)cc1O.Cl: 0%
CCOc1nccc(-c2c(-c3ccc(F)cc3)ncn2C2CCNCC2)n1: 45%
